- System: HepG2
- Protocol: Cytotoxicity against human HepG2 cells after 72 hrs by SRB assay
- Type: functional, cell-based
- Run conditions: HepG2, 72 h
Experimental readout: pIC50
// scale note: pIC50 = -log10(conc_M); give the bare number

input: What value of pIC50 has been recorded for this entry: CC[C@]1(O)C[C@@H]2C[C@](C(=O)OC)(c3cc4c(cc3OC)N(C)[C@H]3[C@@](O)(C(=O)OC)[C@H](OC(C)=O)[C@]5(CC)C=CCN6CC[C@]43[C@@H]65)c3[nH]c4ccccc4c3CC[N@+](CC(=O)/C=C/c3ccc4ccccc4c3)(C2)C1
output: 4.74

input: Param item: CCC1=C[C@@H]2C[C@](C(=O)OC)(c3cc4c(cc3OC)N(C)[C@H]3[C@@](O)(C(=O)OC)[C@H](OC(C)=O)[C@]5(CC)C=CCN6CC[C@]43[C@@H]65)c3[nH]c4ccccc4c3CC[N@@+](CC(=O)/C=C/c3ccc4ccccc4c3)(C1)C2
output: 5.37
